These measurements were taken from patent US20180291082A1.

target: T1, HLA-B*44:02 (human); assay: UV-ligand exchange, anti-b2m ELISA; exchange yield grade (+ >10%, ++ >20%, +++ >50, ++++ >75%)
T1 construct: Peptide-receptive MHC monomer made by UV cleavage of a UV-sensitive peptide
What peptide exchange yield was measured for each of the following?

Answered examples (3):
[in] Query: peptide exchange yield; subject: AEQTGTWKL
[out] 20 to 50%

[in] Query: peptide exchange yield; subject: KENFAGEATL
[out] 20 to 50%

[in] Query: peptide exchange yield; subject: SENPETITY
[out] 50 to 75%

Others:
[in] Query: peptide exchange yield; subject: ARLTPIPFGL
[out] 10 to 20%
